These data points were gathered from ChEMBL document CHEMBL5724914.

conditions: human gut metagenome, 24 h, 2 µM; further: call rule not given here
MEASURED PROPERTY: Bacterial Biotransformation

// solved cases for Bacterial Biotransformation follow
COMPOUND	MEASURED PROPERTY	RECORDED VALUE
CN1CCC(OC(c2ccccc2)c2ccccc2)CC1	Bacterial Biotransformation	Compound metabolized
Cc1cc(C)cc(OCC2CNC(=O)O2)c1 (stereo unspecified)	Bacterial Biotransformation	Compound metabolized
CC(C)[C@H]1CC[C@H](C(=O)N[C@H](Cc2ccccc2)C(=O)O)CC1 [NATEGLINIDE]	Bacterial Biotransformation	Compound metabolized
Cc1cc2c(s1)Nc1ccccc1N=C2N1CCN(C)CC1	Bacterial Biotransformation	Compound NOT metabolized
CCOC(=O)[C@H](CCc1ccccc1)N[C@@H](C)C(=O)N1CCC[C@H]1C(=O)O.O=C(O)/C=C\C(=O)O [ENALAPRIL MALEATE]	Bacterial Biotransformation	Compound NOT metabolized

Hi, could you look up Bacterial Biotransformation for each item in my list?
1. C[N+]12CCC(CC1)C(OC(=O)C(O)(c1ccccc1)c1ccccc1)C2.[Br-] (stereo unspecified) [CLIDINIUM BROMIDE]
2. CC(=O)OCC(CCn1cnc2cnc(N)nc21)COC(C)=O
3. CC(N)C12CC3CC(CC(C3)C1)C2 (stereo unspecified)
4. CC(CCc1ccccc1)NCC(O)c1ccc(O)c(C(N)=O)c1 (stereo unspecified)
5. O=C1N=C([O-])NC1(c1ccccc1)c1ccccc1.[Na+] [PHENYTOIN SODIUM]
6. CCN(CC)CCNC(=O)c1cc(S(C)(=O)=O)ccc1OC [TIAPRIDE]

Result:
1. Compound NOT metabolized
2. Compound metabolized
3. Compound NOT metabolized
4. Compound NOT metabolized
5. Compound metabolized
6. Compound metabolized

Hi, could you look up Bacterial Biotransformation for each item in my list?
1. CN1CCN2c3ccccc3Cc3ccccc3C2C1 (stereo unspecified)
2. CSc1ccc2c(c1)C(N1CCN(C)CC1)Cc1ccccc1S2.O=C(O)/C=C\C(=O)O (stereo unspecified)
3. COc1ccccc1OCCNCC(O)COc1cccc2[nH]c3ccccc3c12 (stereo unspecified)
4. CCCC(C)(COC(N)=O)COC(=O)NC(C)C (stereo unspecified)

Result:
["Compound metabolized", "Compound NOT metabolized", "Compound metabolized", "Compound metabolized"]

Hi, could you look up Bacterial Biotransformation for each item in my list?
1. COc1ccc(C(CN(C)C)C2(O)CCCCC2)cc1 (stereo unspecified)
2. CC[C@@]1(O)C(=O)OCc2c1cc1n(c2=O)Cc2cc3c(CN(C)C)c(O)ccc3nc2-1
3. C#C[C@]1(OC(C)=O)CC[C@H]2[C@@H]3CCC4=CC(=O)CC[C@@H]4[C@H]3CC[C@@]21C [NORETHINDRONE ACETATE]
4. CC(C)(C)N.CCC[C@H](N[C@@H](C)C(=O)N1[C@H](C(=O)O)C[C@@H]2CCCC[C@@H]21)C(=O)OCC
5. CC(C)(C)NCC(O)COc1cccc2c1CC(O)C(O)C2 (stereo unspecified)
6. CCS(=O)(=O)CCn1c([N+](=O)[O-])cnc1C
7. COc1cc2nc(N3CCN(C(=O)C4CCCO4)CC3)nc(N)c2cc1OC (stereo unspecified)
8. Br.CN1CCC[C@@H]1Cc1c[nH]c2ccc(CCS(=O)(=O)c3ccccc3)cc12 [ELETRIPTAN HYDROBROMIDE]

Result:
["Compound NOT metabolized", "Compound NOT metabolized", "Compound metabolized", "Compound metabolized", "Compound NOT metabolized", "Compound metabolized", "Compound NOT metabolized", "Compound NOT metabolized"]

Hi, could you look up Bacterial Biotransformation for each item in my list?
1. CN1CCC(=C2c3ccccc3CC(=O)c3sccc32)CC1.O=C(O)/C=C/C(=O)O [KETOTIFEN FUMARATE]
2. CC#CCn1c(N2CCC[C@@H](N)C2)nc2c1c(=O)n(Cc1nc(C)c3ccccc3n1)c(=O)n2C
3. COc1ccc(/C=C/C(=O)Nc2ccccc2C(=O)O)cc1OC
4. CC(C)NCC(O)COc1ccc(CC(N)=O)cc1 (stereo unspecified)
5. CC(C)(C)NC(=O)[C@H]1CC[C@H]2[C@@H]3CC[C@H]4NC(=O)C=C[C@]4(C)[C@H]3CC[C@]12C [FINASTERIDE]
6. CCOc1ccccc1OCCN[C@H](C)Cc1ccc(OC)c(S(N)(=O)=O)c1.Cl [TAMSULOSIN HYDROCHLORIDE]
7. c1ccc2[nH]c(-c3cscn3)nc2c1
8. CC1=C(CC(=O)O)c2cc(F)ccc2/C1=C\c1ccc([S+](C)[O-])cc1 (stereo unspecified)

Result:
["Compound metabolized", "Compound NOT metabolized", "Compound NOT metabolized", "Compound NOT metabolized", "Compound metabolized", "Compound NOT metabolized", "Compound NOT metabolized", "Compound metabolized"]

Hi, could you look up Bacterial Biotransformation for each item in my list?
1. Nc1nnc(-c2cccc(Cl)c2Cl)c(N)n1
2. CN(C)CCC=C1c2ccccc2COc2ccccc21 [DOXEPIN]
3. CC(=O)OCC(=O)NCCCOc1cccc(CN2CCCCC2)c1 [ROXATIDINE ACETATE]

Result:
Compound NOT metabolized
Compound metabolized
Compound metabolized

Hi, could you look up Bacterial Biotransformation for each item in my list?
1. CCN(CC)CCOC(=O)C1(C2CCCCC2)CCCCC1
2. C#C[C@]1(OC(C)=O)CC[C@H]2[C@@H]3CCC4=C[C@@H](OC(C)=O)CC[C@@H]4[C@H]3CC[C@@]21C [ETHYNODIOL DIACETATE]

Result:
Compound metabolized
Compound metabolized

====

experiment: The drug is tested on WLS-010 corresponding to human gut metagenome with ENA study accession number: PRJEB37062 and ENA sample accession number: ERS12561743 for biotransformation under anaerobic condition. The drug concentrations were measured over 9 timepoints collected between 0 and 24 hours of incubation by liquid-chromatography-coupled mass spectrometry (LC–MS); details: 2 µM
MEASURED PROPERTY: Bacterial Biotransformation

// solved cases for Bacterial Biotransformation follow
COMPOUND	Bacterial Biotransformation
CN(CCOc1ccc(CC2SC(=O)NC2=O)cc1)c1ccccn1.O=C(O)/C=C\C(=O)O (stereo not given) [ROSIGLITAZONE MALEATE]	Compound NOT metabolized
C#C[C@]1(OC(C)=O)CC[C@H]2[C@@H]3CCC4=CC(=O)CC[C@@H]4[C@H]3CC[C@@]21C [NORETHINDRONE ACETATE]	Compound metabolized
CC(C)(C)NC(=O)[C@H]1CC[C@H]2[C@@H]3CC[C@H]4NC(=O)C=C[C@]4(C)[C@H]3CC[C@]12C [FINASTERIDE]	Compound metabolized
COc1ccc(/C=C/C(=O)Nc2ccccc2C(=O)O)cc1OC	Compound metabolized

Consider now this further compound.
Q: // lookup Bacterial Biotransformation for CC(CCc1ccccc1)NCC(O)c1ccc(O)c(C(N)=O)c1 (stereo not given)
Result: Compound NOT metabolized

====

conditions: human gut metagenome, 24 h, 2 µM
MEASURED PROPERTY: Bacterial Biotransformation

// solved cases for Bacterial Biotransformation follow
COMPOUND	MEASURED PROPERTY	RECORDED VALUE
CC#C[C@]1(O)CC[C@H]2[C@@H]3CCC4=CC(=O)CCC4=C3[C@@H](c3ccc(N(C)C)cc3)C[C@@]21C	Bacterial Biotransformation	Compound NOT metabolized
CN1CCC[C@@H]1CCO[C@](C)(c1ccccc1)c1ccc(Cl)cc1.O=C(O)/C=C/C(=O)O [CLEMASTINE FUMARATE]	Bacterial Biotransformation	Compound metabolized
CC(=O)OCC(=O)NCCCOc1cccc(CN2CCCCC2)c1 [ROXATIDINE ACETATE]	Bacterial Biotransformation	Compound metabolized
CN(C)CCc1c[nH]c2ccc(CS(=O)(=O)N3CCCC3)cc12	Bacterial Biotransformation	Compound NOT metabolized
O=C(CCCN1CCC2(CC1)C(=O)NCN2c1ccccc1)c1ccc(F)cc1	Bacterial Biotransformation	Compound NOT metabolized
CNCC[C@H](Oc1cccc2ccccc12)c1cccs1	Bacterial Biotransformation	Compound NOT metabolized
O=C1N=C([O-])NC1(c1ccccc1)c1ccccc1.[Na+] [PHENYTOIN SODIUM]	Bacterial Biotransformation	Compound NOT metabolized
CC1=C(CC(=O)O)c2cc(F)ccc2/C1=C\c1ccc([S+](C)[O-])cc1 (centres undefined)	Bacterial Biotransformation	Compound metabolized

Hi, could you look up Bacterial Biotransformation for each item in my list?
1. COc1ccc(Cc2nccc3cc(OC)c(OC)cc23)cc1OC
2. N=C(N)NC(=O)Cc1c(Cl)cccc1Cl
3. CCCN1C[C@H](CSC)C[C@@H]2c3cccc4[nH]cc(c34)C[C@H]21.CS(=O)(=O)O [PERGOLIDE MESYLATE]
4. C[C@]12C=CC(=O)C=C1CC[C@@H]1[C@@H]2C(=O)C[C@@]2(C)[C@H]1CC[C@]2(O)C(=O)CO
5. CSc1ccc2c(c1)C(N1CCN(C)CC1)Cc1ccccc1S2.O=C(O)/C=C\C(=O)O (centres undefined)

Result:
1: Compound metabolized; 2: Compound NOT metabolized; 3: Compound NOT metabolized; 4: Compound metabolized; 5: Compound NOT metabolized

Hi, could you look up Bacterial Biotransformation for each item in my list?
1. CN[C@H]1CC[C@@H](c2ccc(Cl)c(Cl)c2)c2ccccc21
2. CCc1cccc2c3c([nH]c12)C(CC)(CC(=O)O)OCC3 (centres undefined)
3. O=C(O)c1cc(/N=N/c2ccc(S(=O)(=O)Nc3ccccn3)cc2)ccc1O

Result:
1: Compound NOT metabolized; 2: Compound metabolized; 3: Compound metabolized

Hi, could you look up Bacterial Biotransformation for each item in my list?
1. CC[C@H](C)C(=O)O[C@H]1CCC=C2C=C[C@H](C)[C@H](CC[C@@H]3C[C@@H](O)CC(=O)O3)[C@H]21
2. N#Cc1ccc2[nH]cc(CCCCN3CCN(c4ccc5oc(C(N)=O)cc5c4)CC3)c2c1
3. COc1ccnc(C[S+]([O-])c2nc3ccc(OC(F)F)cc3[nH]2)c1OC (centres undefined)

Result:
1: Compound metabolized; 2: Compound metabolized; 3: Compound metabolized

Hi, could you look up Bacterial Biotransformation for each item in my list?
1. CC12CC3CC(C)(C1)CC(N)(C3)C2 [MEMANTINE]
2. CN(C)CCOC(C)(c1ccccc1)c1ccccn1.O=C(O)CCC(=O)O (centres undefined) [DOXYLAMINE SUCCINATE]
3. CC(C)C[C@H]1C(=O)N2CCC[C@H]2[C@]2(O)O[C@](NC(=O)[C@@H]3C=C4c5cccc6[nH]c(Br)c(c56)C[C@H]4N(C)C3)(C(C)C)C(=O)N12.CS(=O)(=O)O [BROMOCRIPTINE MESYLATE]
4. CN(C)CCC=C1c2ccccc2COc2ccccc21 [DOXEPIN]
5. CC(C)(C)NCC(O)COc1cccc2c1CC(O)C(O)C2 (centres undefined)
6. CC(NC(C)(C)C)C(=O)c1cccc(Cl)c1 (centres undefined)
7. COc1cc(C(=O)NCc2ccc(OCCN(C)C)cc2)cc(OC)c1OC [TRIMETHOBENZAMIDE]
8. CN1CCN2c3ccccc3Cc3ccccc3C2C1 (centres undefined)

Result:
1. Compound NOT metabolized
2. Compound NOT metabolized
3. Compound metabolized
4. Compound metabolized
5. Compound NOT metabolized
6. Compound NOT metabolized
7. Compound NOT metabolized
8. Compound NOT metabolized
